Value source: patent US9404081B2

biological target: PKR T384W (Homo sapiens, UniProt P30613, T384W); experiment: PKR T384W Single Point Percent Activation Assay; type: biochemical; settings: read-out: Act. % 384W
Sequence (P30613 whole entry T384W): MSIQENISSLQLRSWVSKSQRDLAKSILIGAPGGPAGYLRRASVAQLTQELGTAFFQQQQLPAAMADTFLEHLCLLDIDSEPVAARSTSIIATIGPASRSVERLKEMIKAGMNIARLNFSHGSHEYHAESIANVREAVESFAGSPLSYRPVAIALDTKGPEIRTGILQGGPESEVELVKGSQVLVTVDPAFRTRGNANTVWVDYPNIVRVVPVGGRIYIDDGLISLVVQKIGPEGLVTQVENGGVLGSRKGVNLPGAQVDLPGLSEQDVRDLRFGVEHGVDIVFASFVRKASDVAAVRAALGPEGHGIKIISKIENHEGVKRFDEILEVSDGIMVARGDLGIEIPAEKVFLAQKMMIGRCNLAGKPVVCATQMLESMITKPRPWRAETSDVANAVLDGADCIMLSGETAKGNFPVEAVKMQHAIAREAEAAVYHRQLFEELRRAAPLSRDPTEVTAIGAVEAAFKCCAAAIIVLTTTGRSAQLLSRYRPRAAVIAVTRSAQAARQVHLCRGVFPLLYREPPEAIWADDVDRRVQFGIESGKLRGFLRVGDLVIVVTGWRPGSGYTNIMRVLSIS
List of activation at 1 µM values.

Example entries and their recorded answers appear below.
compound=C[C@@H]1CN(C(=O)c2ccc(NS(=O)(=O)c3cccc4cccnc34)cc2)CCN1C(=O)c1ccccn1 experimental_endpoint="activation at 1 µM" reading="101 to 500%"
compound="CC(c1ccc(F)cc1F)N1CCN(C(=O)c2ccc(NS(=O)(=O)c3cccc4cccnc34)cc2)[C@H](C)C1 (stereo partly drawn)" experimental_endpoint="activation at 1 µM" reading="1 to 100%"
compound="CC1CN(CC2CC2)CC(C)N1C(=O)c1ccc(NS(=O)(=O)c2cccc3cccnc23)cc1 (stereo not drawn)" experimental_endpoint="activation at 1 µM" reading="101 to 500%"
compound=O=C(c1ccc(NS(=O)(=O)c2cccc3cccnc23)cc1)N1CC2CCC(C1)N2Cc1ccc(F)cc1 experimental_endpoint="activation at 1 µM" reading="1 to 100%"

Consider the compound CC(c1cc(F)cc(F)c1)N1CCN(C(=O)c2ccc(NS(=O)(=O)c3cccc4cccnc34)cc2)[C@H](C)C1 (stereo partly drawn) tested on PKR T384W (Homo sapiens, UniProt P30613, T384W); state its activation at 1 µM.
101 to 500%

Consider the compound C[C@@H]1CN(C(=O)OCCC2CCCC2)CCN1C(=O)c1ccc(NS(=O)(=O)c2cccc3cccnc23)cc1 tested on PKR T384W (Homo sapiens, UniProt P30613, T384W); state its activation at 1 µM.
1 to 100%

Consider the compound C[C@@H]1CN(C(=O)OC2CCCC2)CCN1C(=O)c1ccc(NS(=O)(=O)c2cccc3cccnc23)cc1 tested on PKR T384W (Homo sapiens, UniProt P30613, T384W); state its activation at 1 µM.
101 to 500%

###

molecular target: PKR R532W (Homo sapiens, UniProt P30613, R532W); assay: PKR R532W Single Point Percent Activation Assay; type: biochemical; details: read-out: Act, % 532W
Sequence (P30613 whole entry R532W): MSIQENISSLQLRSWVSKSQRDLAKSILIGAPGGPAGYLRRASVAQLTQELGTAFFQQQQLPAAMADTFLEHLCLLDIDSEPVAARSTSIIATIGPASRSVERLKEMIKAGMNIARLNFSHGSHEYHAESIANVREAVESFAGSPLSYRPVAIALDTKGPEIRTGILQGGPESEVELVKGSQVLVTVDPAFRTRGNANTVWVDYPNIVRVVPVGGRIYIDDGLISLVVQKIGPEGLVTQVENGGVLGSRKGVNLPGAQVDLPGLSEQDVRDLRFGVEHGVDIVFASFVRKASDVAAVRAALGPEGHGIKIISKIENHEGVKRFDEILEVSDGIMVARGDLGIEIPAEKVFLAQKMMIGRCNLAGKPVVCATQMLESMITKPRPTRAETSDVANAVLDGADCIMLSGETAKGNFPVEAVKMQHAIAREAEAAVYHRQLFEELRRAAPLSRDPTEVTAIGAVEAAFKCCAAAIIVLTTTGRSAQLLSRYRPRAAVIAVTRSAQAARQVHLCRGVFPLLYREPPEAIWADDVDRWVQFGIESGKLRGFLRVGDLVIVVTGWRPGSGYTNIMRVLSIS
experimental endpoint: activation at 1 µM

molecule=C[C@H]1CN(CC2CC2)CCN1C(=O)c1ccc(NS(=O)(=O)c2cccc3cccnc23)cc1 experimental_endpoint="activation at 1 µM" reading="101 to 500%"

Give the reported value of activation at 1 µM for this record: O=C(c1ccc(NS(=O)(=O)c2cccc3cccnc23)cc1)N1CCN(Cc2ccc(F)cc2)C[C@@H]1c1ccccc1
1 to 100%

Give the reported value of activation at 1 µM for this record: C[C@H]1CN(Cc2c(F)cc(F)cc2F)CCN1C(=O)c1ccc(NS(=O)(=O)c2cccc3cccnc23)cc1Cl
1 to 100%

Give the reported value of activation at 1 µM for this record: CC1CN(Cc2cc(F)c(F)cc2F)CC(C)N1C(=O)c1ccc(NS(=O)(=O)c2cccc3cccnc23)cc1 (stereo not shown)
1 to 100%

###

List of activation at 1 µM values.
target: PKR R532W (Homo sapiens, UniProt P30613, R532W); assay: PKR R532W Single Point Percent Activation Assay; assay type: biochemical; conditions: read-out: Act, % 532W

molecule=C[C@H]1CN(C(=O)c2ccccn2)CCN1C(=O)c1ccc(NS(=O)(=O)c2cccc3cccnc23)cc1 measured_on="PKR R532W (Homo sapiens, UniProt P30613, R532W)" experimental_endpoint="activation at 1 µM" reading="101 to 500%"

Give the reported value of activation at 1 µM for this record: O=C1CN(C(=O)c2ccc(NS(=O)(=O)c3cccc4cccnc34)cc2)CCN1Cc1cc(F)cc(F)c1
101 to 500%

Give the reported value of activation at 1 µM for this record: C[C@@H]1CN(Cc2cc(F)c(F)c(F)c2)CCN1C(=O)c1ccc(NS(=O)(=O)c2cccc3cccnc23)cc1
1 to 100%

Give the reported value of activation at 1 µM for this record: C[C@@H]1CN(Cc2c(F)ccc(F)c2F)CCN1C(=O)c1ccc(NS(=O)(=O)c2cccc3cccnc23)cc1
101 to 500%

Give the reported value of activation at 1 µM for this record: O=C(c1ccc(NS(=O)(=O)c2cccc3cccnc23)cc1)N1CC2CCC(C1)N2CC1CC1
101 to 500%

Give the reported value of activation at 1 µM for this record: O=C(c1ccc(NS(=O)(=O)c2cccc3cccnc23)cc1)N1CC2CCC(C1)N2Cc1cc(F)cc(F)c1
1 to 100%

Give the reported value of activation at 1 µM for this record: CC(c1ccc(F)cc1F)N1CCN(C(=O)c2ccc(NS(=O)(=O)c3cccc4cccnc34)cc2)[C@H](C)C1 (stereo partly drawn)
1 to 100%

Give the reported value of activation at 1 µM for this record: CC(c1ccc(Cl)c(F)c1)N1CCN(C(=O)c2ccc(NS(=O)(=O)c3cccc4cccnc34)cc2)[C@@H](C)C1 (stereo partly drawn)
1 to 100%
